- Measurement target: T1, Anti-CD28 Fab (SEQ ID NOs: 696, 697)
- T1 construct: Biotinylated and captured on neutravidin coated plates in the phage ELISA
- T1 sequence (VH, as listed by the source, chain 1 of 2): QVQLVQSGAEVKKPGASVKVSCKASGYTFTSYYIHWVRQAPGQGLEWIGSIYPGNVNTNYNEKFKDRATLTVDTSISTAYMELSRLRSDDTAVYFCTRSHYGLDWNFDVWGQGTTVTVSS
- T1 sequence (VL, as listed by the source, chain 2 of 2): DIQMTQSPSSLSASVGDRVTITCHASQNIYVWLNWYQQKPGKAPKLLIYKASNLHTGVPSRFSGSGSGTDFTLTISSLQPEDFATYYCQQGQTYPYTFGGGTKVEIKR
- Test details: phage ELISA, clonal phage on biotinylated anti-CD28 Fab captured on neutravidin, anti-M13-HRP detection
Anti-CD28 Fab signal (phage binding ELISA): recorded values
Quantity name: Anti-CD28 Fab signal (phage binding ELISA)

{"columns": ["Binder", "Reported measurement"],
 "data": [
  ["YCEGHIGIYMSKCL [Phage-1143]", 1.23],
  ["YCEGHAAEYLWKCL [Phage-1154]", 1.18],
  ["YCHGHLPQYMSKCM [Phage-1150]", 1.21],
  ["YCAGHAPEYISKCL [Phage-1152]", 1.21],
  ["YCEGHSTEYIQKCL [Phage-1144]", 1.23]
]}
